Measured values drawn from ChEMBL document CHEMBL2311257 for this set.

System: Radical scavenging activity
Assay: Antioxidant activity assessed as DPPH radical scavenging activity in ethanol solution at 25 ug/mL
Type: functional
QUANTITY KIND: Activity

Sample records with Activity:
COMPOUND	QUANTITY KIND	RESULT
Cc1cc(/N=C/c2ccc(Br)cc2)c(C(C)C)cc1O	Activity	63.1%
Cc1cc(/N=C/c2cccnc2)c(C(C)C)cc1O	Activity	61.9%
Cc1cc(/N=C/c2cc(Br)c(O)c(Br)c2)c(C(C)C)cc1O	Activity	74.6%
Cc1cc(O)c(C(C)C)cc1/N=C/c1ccccc1	Activity	60.6%

Then this compound:
The compound listed as COc1ccc(/C=N/c2cc(C)c(O)cc2C(C)C)cc1OC has a reported Activity of 67.5%
